B1: SMOC2 (parent)
chain: QKPLCASDGRTFLSRCEFQRAKCK

variants of: B1; assay: protein stability index of a GFP-peptide fusion (GPS, HEK-293T) (PSI 1-6); higher = more stable; details: c terminus: a fixed tail appended;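 further: lentivirally expressed fusions sorted by FACS into six bins by GFP to DsRed ratio, PSI derived from sequencing read proportions per bin multiplied by bin number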
measured-metric: protein stability index

Query :: Requested field: protein stability index. Item: S14F
Result :: 2.64

Query :: Requested field: protein stability index. Item: C16L
Result :: 2.55

Query :: Requested field: protein stability index. Item: S14C
Result :: 2.82

Query :: Requested field: protein stability index. Item: R20G
Result :: 3.58

Query :: Requested field: protein stability index. Item: A6M
Result :: 2.48

Query :: Requested field: protein stability index. Item: R15C
Result :: 3.06

Query :: Requested field: protein stability index. Item: K22V
Result :: 2.86

Query :: Requested field: protein stability index. Item: E17T
Result :: 3.3

Query :: Requested field: protein stability index. Item: S7C
Result :: 1.82

Query :: Requested field: protein stability index. Item: R10W
Result :: 2.58

Query :: Requested field: protein stability index. Item: L13S
Result :: 2.44

Query :: Requested field: protein stability index. Item: A21F
Result :: 2.44

Query :: Requested field: protein stability index. Item: R10I
Result :: 2.53

Query :: Requested field: protein stability index. Item: K24C
Result :: 1.98

Query :: Requested field: protein stability index. Item: F18Y
Result :: 2.21

Query :: Requested field: protein stability index. Item: K22R
Result :: 2.95

Query :: Requested field: protein stability index. Item: K24I
Result :: 2.23

Query :: Requested field: protein stability index. Item: A6D
Result :: 2.9

Query :: Requested field: protein stability index. Item: C16F
Result :: 3.86

Query :: Requested field: protein stability index. Item: G9L
Result :: 2.68

Query :: Requested field: protein stability index. Item: C23A
Result :: 2.9

Query :: Requested field: protein stability index. Item: K2L
Result :: 2.99

Query :: Requested field: protein stability index. Item: S7I
Result :: 2.31

Query :: Requested field: protein stability index. Item: A21Y
Result :: 2.58

Query :: Requested field: protein stability index. Item: S14Q
Result :: 3.25

Query :: Requested field: protein stability index. Item: S7P
Result :: 3.45

Query :: Requested field: protein stability index. Item: D8H
Result :: 2.52

Query :: Requested field: protein stability index. Item: R20H
Result :: 2.77

Query :: Requested field: protein stability index. Item: T11V
Result :: 2.33

Query :: Requested field: protein stability index. Item: R10F
Result :: 2.95

Query :: Requested field: protein stability index. Item: G9K
Result :: 2.14

Query :: Requested field: protein stability index. Item: F18D
Result :: 4.12

Query :: Requested field: protein stability index. Item: D8Y
Result :: 2.67

Query :: Requested field: protein stability index. Item: L4F
Result :: 2.18

Query :: Requested field: protein stability index. Item: D8I
Result :: 2.35

Query :: Requested field: protein stability index. Item: Q19F
Result :: 2.53

Query :: Requested field: protein stability index. Item: L13I
Result :: 2.82

Query :: Requested field: protein stability index. Item: F12Y
Result :: 2.49

Query :: Requested field: protein stability index. Item: P3R
Result :: 3.19

Query :: Requested field: protein stability index. Item: C5K
Result :: 2.19

Query :: Requested field: protein stability index. Item: F12V
Result :: 3.92

Query :: Requested field: protein stability index. Item: T11S
Result :: 3.14

Query :: Requested field: protein stability index. Item: R10G
Result :: 3.17

Query :: Requested field: protein stability index. Item: R15V
Result :: 3.71

Query :: Requested field: protein stability index. Item: F18M
Result :: 3.67

Query :: Requested field: protein stability index. Item: S14Y
Result :: 2.71
